Measurement Target: T1, human MSLN-R2-his protein (human, UniProt Q13421 391-486)
T1 construct: it is put last here; also called human MSLN-R2 protein; hMSLN-R2-his; not shown: His tag
T1 sequence (Q13421 other isoform, or with tags, fused parts or gaps): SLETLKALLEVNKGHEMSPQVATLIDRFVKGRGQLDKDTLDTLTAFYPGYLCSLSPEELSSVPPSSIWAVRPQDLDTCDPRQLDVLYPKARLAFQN
Experiment Notes: ELISA on coated antigen, antibody 0.2 nM
Each entry below carries its reported OD450.
Express it in OD; write the number only.

See these solved cases before continuing.
S009-F7.6.17 (antibody, human IgG1, kappa, V domains shown, Human-murine chimeric antibody, human IgG1 heavy and kappa light constant regions) VH: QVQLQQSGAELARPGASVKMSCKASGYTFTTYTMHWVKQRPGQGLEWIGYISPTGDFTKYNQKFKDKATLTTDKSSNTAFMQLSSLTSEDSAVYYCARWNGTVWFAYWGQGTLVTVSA VL: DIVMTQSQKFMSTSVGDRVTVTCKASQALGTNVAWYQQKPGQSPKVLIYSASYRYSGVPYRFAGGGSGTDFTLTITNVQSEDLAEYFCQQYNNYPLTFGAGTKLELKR | 0.05
S009-F7.67.12 (antibody, human IgG1, kappa, V domains shown, Human-murine chimeric antibody, human IgG1 heavy and kappa light constant regions) VH: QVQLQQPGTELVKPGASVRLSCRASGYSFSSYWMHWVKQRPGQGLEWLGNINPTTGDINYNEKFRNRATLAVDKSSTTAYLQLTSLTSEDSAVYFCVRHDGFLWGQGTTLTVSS VL: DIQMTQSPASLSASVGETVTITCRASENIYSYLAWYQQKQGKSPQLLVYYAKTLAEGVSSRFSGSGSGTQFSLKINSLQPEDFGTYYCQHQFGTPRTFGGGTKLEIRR | 0.06

Q: I would be grateful if you could share the reported OD450 for S009-F7.12.13 (antibody, human IgG1, kappa, V domains shown, Human-murine chimeric antibody, human IgG1 heavy and kappa light constant regions) VH: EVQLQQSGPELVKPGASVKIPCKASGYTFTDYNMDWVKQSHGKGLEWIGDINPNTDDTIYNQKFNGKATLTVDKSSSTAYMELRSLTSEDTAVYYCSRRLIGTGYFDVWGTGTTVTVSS VL: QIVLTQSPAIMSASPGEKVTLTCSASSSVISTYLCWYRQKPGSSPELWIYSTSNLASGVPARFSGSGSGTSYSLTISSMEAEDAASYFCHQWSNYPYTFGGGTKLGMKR .
Result: 0.05
